# assay-name: Plasma pharmacokinetics of sorafenib and sorafenib N-oxide
# setup-conditions: human, in vivo, 400 mg, Day 15 Cmin, dose levels 1 and 2, 400 mg; mean ± SD
endpoint: concentration at 15 day (ng/mL)
Express your answer in ng/mL, writing the number without its unit.

Q) Name the recorded concentration at 15 day of the item CNC(=O)c1cc(Oc2ccc(NC(=O)Nc3ccc(Cl)c(C(F)(F)F)c3)cc2)ccn1 in your answer.
A) 4600

----------
# assay-name: Plasma pharmacokinetics of sorafenib and sorafenib N-oxide
# setup-conditions: human, in vivo, po, 400 mg, Tmax, dose level 2, 400 mg PO BID × 21 of 28 days; first dose; median (range, n)
endpoint: Tmax (h)
Express your answer in h, writing the number without its unit.

Q) Name the recorded Tmax of the item CNC(=O)c1cc(Oc2ccc(NC(=O)Nc3ccc(Cl)c(C(F)(F)F)c3)cc2)ccn1 [sorafenib] in your answer.
A) 4

----------
# assay-name: Plasma pharmacokinetics of sorafenib and sorafenib N-oxide
# setup-conditions: human, in vivo, po, 400 mg, Day 29 C, dose level 1, 400 mg PO BID × 14 of 28 days; after 14 day break
endpoint: concentration at 29 day (ng/mL)
Express your answer in ng/mL, writing the number without its unit.

Q) Name the recorded concentration at 29 day of the item CNC(=O)c1cc(Oc2ccc(NC(=O)Nc3ccc(Cl)c(C(F)(F)F)c3)cc2)ccn1 [sorafenib] in your answer.
A) 190

----------
# assay-name: Plasma pharmacokinetics of sorafenib and sorafenib N-oxide
# setup-conditions: human, in vivo, po, 600 mg, Day 8 Cmin, dose level 3, 600 mg PO BID × 14 of 28 days; n=1
endpoint: concentration at 8 day (ng/mL)
Express your answer in ng/mL, writing the number without its unit.

Q) Name the recorded concentration at 8 day of the item CNC(=O)c1cc(Oc2ccc(NC(=O)Nc3ccc(Cl)c(C(F)(F)F)c3)cc2)ccn1 [sorafenib] in your answer.
A) 7790

----------
# assay-name: Plasma pharmacokinetics of sorafenib and sorafenib N-oxide
# setup-conditions: human, in vivo, po, 600 mg, Day 2 Cmin, dose level 3, 600 mg PO BID × 14 of 28 days; n=1
endpoint: concentration at 2 day (ng/mL)
Express your answer in ng/mL, writing the number without its unit.

Q) Name the recorded concentration at 2 day of the item CNC(=O)c1cc(Oc2ccc(NC(=O)Nc3ccc(Cl)c(C(F)(F)F)c3)cc2)ccn1 in your answer.
A) 2490

Value source: paper PMC2921005
